B1: Response regulator aspartate phosphatase H (Bacillus subtilis), Q59HN8 (parent)
chain: MSQAIPSSRVGVKINEWYKMIRQFSVPDAEILKAEVEQDIQQMEEDQDLLIYYSLMCFRHQLMLDYLEPGKTYGNRPTVTELLETIETPQKKLTGLLKYYSLFFRGMYEFDQKEYVEAIGYYREAEKELPFVSDDIEKAEFHFKVAEAYYHMKQTHVSMYHILQALDIYQNHPLYSIRTIQSLFVIAGNYDDFKHYDKALPHLEAALELAMDIQNDRFIAISLLNIANSYDRSGDDQMAVEHFQKAAKVSREKVPDLLPKVLFGLSWTLCKAGQTQKAFQFIEEGLDHITARSHKFYKELFLFLQAVYKETVDERKIHDLLSYFEKKNLHAYIEACARSAAAVFESSCHFEQAAAFYRKVLKAQEDILKGECLYAY
partner: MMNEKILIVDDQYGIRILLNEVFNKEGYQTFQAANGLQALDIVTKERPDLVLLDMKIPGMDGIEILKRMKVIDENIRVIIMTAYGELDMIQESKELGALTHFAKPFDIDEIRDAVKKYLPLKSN

# Variants of: B1
# Protocol conditions: with sp0f_bacsu spo0F
Recorded metric: effect of a mutation on the interaction

[
  {
    "Changes": "E137A",
    "effect of a mutation on the interaction": "disrupting interaction"
  },
  {
    "Changes": "D134A",
    "effect of a mutation on the interaction": "decreasing interaction"
  },
  {
    "Changes": "Q47N",
    "effect of a mutation on the interaction": "disrupting interaction"
  },
  {
    "Changes": "L50A",
    "effect of a mutation on the interaction": "disrupting interaction"
  }
]

Dear colleague, I am looking for the recorded effect of a mutation on the interaction of the following variant: Y175A
disrupting interaction

May I ask what effect of a mutation on the interaction has been recorded for F58A ?
decreasing interaction
